Recorded values, source ChEMBL document CHEMBL4402562.

- method description: Cytotoxicity in human HepG2 cells assessed as reduction in cell viability incubated for 24 hrs by MTT assay
- Assay type: cell-based
outcome measure: GI50 at 24 h

CC(C)C[C@H](NC(=O)CNC(=O)c1cc(Cl)ccc1Cl)B(O)O: > 200 µM
COc1ccc(C(=O)N[C@@H](Cc2ccccc2)C(=O)N[C@@H](CC(C)C)B(O)O)c(C)c1: > 200 µM

// moving on: another record for GI50 at 24 h
Problem: Look up GI50 at 24 h for this molecule: `COc1ccc(C(=O)N[C@@H](Cc2ccccc2)C(=O)N[C@@H](CC(C)C)B(O)O)cc1`
Solution: > 200 µM
